Exercise: state measured Average ALPHA signal at 200 μM (std. dev.) for each of the compounds provided.
molecular target: TLX LBD (Homo sapiens (Human), UniProt Q9Y466); assay: ALPHA screen assay for TLX LBD and coactivator peptide recruitment; assay type: biochemical; settings: Table 3; 200 μM; mean (std. dev.)
Sequence (Q9Y466 155-383): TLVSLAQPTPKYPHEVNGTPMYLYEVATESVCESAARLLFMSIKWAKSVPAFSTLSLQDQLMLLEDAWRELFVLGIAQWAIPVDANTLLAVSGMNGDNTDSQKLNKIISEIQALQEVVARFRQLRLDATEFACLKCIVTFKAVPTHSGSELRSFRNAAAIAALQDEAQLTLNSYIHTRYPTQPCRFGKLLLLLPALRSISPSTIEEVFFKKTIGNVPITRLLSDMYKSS

// Average ALPHA signal at 200 μM (std. dev.) lookup, compound = CNc1ncccc1C(=O)N1CCN(Cc2ccccc2)[C@@H](C)C1 [Compound 92] , result: 1.85 (0.10)

So, Cc1ccc(CN2CCN(C(=O)c3cccnc3NCCC(C)C)[C@H](C)C2)cc1 [Compound 45] ? Its Average ALPHA signal at 200 μM (std. dev.) was 3.50 (0.06)

So for CC(C)CCNc1ncccc1C(=O)N1CCN(Cc2ccc(C(=O)O)cc2)CC1 [Compound 60] , the logged Average ALPHA signal at 200 μM (std. dev.) turned out to be 1.06 (0.05)

For CCCCCCN1CCN(C(=O)c2cccnc2NCCC(C)C)[C@H](C)C1 [Compound 47] the compound record lists Average ALPHA signal at 200 μM (std. dev.) as 7.81 (0.45)

The reported value for CC(C)CCNc1ncccc1C(=O)N1CCN(Cc2ccccn2)C[C@@H]1C [Compound 34] in terms of Average ALPHA signal at 200 μM (std. dev.) is 1.29 (0.05)

Recorded result, CC(C)CCNc1ncccc1C(=O)N1CCN(C)C[C@@H]1C [Compound 38] , Average ALPHA signal at 200 μM (std. dev.): 0.85 (0.06)

Per the record, CC(C)CCNc1ncccc1C(=O)N1CCN(Cc2ccccc2)C[C@H]1C [Compound 3] has Average ALPHA signal at 200 μM (std. dev.) of 2.49 (0.12)

Average ALPHA signal at 200 μM (std. dev.) for COC(=O)C[C@H]1CN(Cc2ccccc2)[C@H](C)CN1C(=O)c1cccnc1NCCC(C)C [Compound 76] is 3.09 (0.18)

Kindly note the recorded Average ALPHA signal at 200 μM (std. dev.) for CC(C)CNc1ncccc1C(=O)N1CCN(Cc2ccccc2)[C@H](C)C1 [Compound 87] , which is 2.07 (0.03)

Average ALPHA signal at 200 μM (std. dev.) recorded for this compound, Cc1ccccc1CN1CCN(C(=O)c2cccnc2NCCC(C)C)[C@@H](C)C1 [Compound 31] , is 4.52 (0.06)

Entry CC(C)CCNc1ncccc1C(=O)N1CCN(CCC2CCN(C(=O)OC(C)(C)C)CC2)C[C@@H]1C [Compound 41] , Average ALPHA signal at 200 μM (std. dev.) reported as 2.73 (0.13)
